# Tested on: SNB-75 CNS
# Assay Details: NCI tumour cell line growth inhibition, 48 h; in the data active means GI50 below about 0.43 µM; inactive means the rest
Classes used: true for active, false for inactive

Compound	Qualitative Label
CN(C)c1ccc(-c2cc(-c3ccc(Nc4nc(Nc5ccccc5)nc(Nc5ccc(Cl)cc5)n4)cc3)nc(N)n2)cc1	false
CC(C)(O)C1CCC(Nc2ccc3ncc(-c4cccc(C(F)(F)F)c4)n3n2)CC1 (stereo not drawn)	false
O=C1C=C[C@@]23C[C@@H](Nc4c(O)c5c6c(c42)=NCCC=6C=N5)SC3=C1	false
O=C(CCCCCCSc1nc(-c2ccccc2)cc(-c2ccccc2)n1)NO	false
N#Cc1cccc(C(=O)Nc2cccc(NC(=O)c3cccc(C#N)c3)c2)c1	false
CS(=O)(=O)c1ccc(-c2cnc(N)c(C(=O)Nc3ccccc3)n2)cc1	false
CCCCCCCCCCCCCCCC[N+](C)(C)CCN(Cc1ccc(OC)cc1)c1ncccn1	false
C/C(=C\c1ccn(-c2ccc(N)c(F)c2)n1)[C@@H]1C[C@@H]2O[C@]2(C)CCC[C@H](C)[C@H](O)[C@@H](C)C(=O)C(C)(C)[C@@H](O)CC(=O)O1	true

---

# System: SK-MEL-5 melanoma
# Assay Details: NCI tumour cell line growth inhibition, 48 h
Entries and their TGI
Experimental Endpoint: TGI

CN(C)CCCNc1ncnc2nc[nH]c12 > 100 µM
c1ccc(-c2cs[s+]c2)cc1 > 100 µM
CC(=O)Oc1ccc2c(C)cc(=O)oc2c1 > 100 µM
COc1cc(C[C@H]2C(=O)OC[C@@H]2Cc2ccc(OC)c(OC)c2)cc(OC)c1 54.5 µM
Cc1cc(OCc2nn(CN3CCN(C)CC3)c(=S)n2/N=C/c2ccc(-c3ccc(Cl)cc3Cl)o2)ccc1Cl > 100 µM
C=CN1C(=O)OC[C@@H]1c1ccccc1 > 100 µM
C=CCOc1ccc(/C(N=Nc2ccccc2)=N/NC(=O)c2ccccc2)cc1OC > 100 µM
NC(=NC1CCCCCCC1)c1ccc(N2CCN(c3ccc(C(N)=NC4CCCCCCC4)cc3)CC2)cc1 7.66 µM
CCC(CC)n1cc(C(=O)NC(=O)NCCCCCOC(=O)CCCCCCCCCCC(=O)OCCCCCNC(=O)NC(=O)c2cn(C(CC)CC)c(=O)[nH]c2=O)c(=O)[nH]c1=O > 100 µM
COc1cc2nc(-c3cccs3)nc(N3C(c4ccc(O)cc4)=NNC(=O)c4ccccc43)c2cc1OC > 100 µM

---

A collection of compounds and their measured TGI
# Test system: NCI-H460 lung
# Assay Details: NCI tumour cell line growth inhibition, 48 h

Compound	TGI
COc1cc2c3c(n(CCCNCC(OC)OC)c(=O)c2cc1OC)-c1cc2c(cc1C3=O)OCO2	20.5 µM
C=C(C)C(=O)OC1CC2=CC(CC3(C)OC3C3OC(=O)C(=C)C13)OC2=O (configuration not stated)	35.1 µM
CC1=CCC(OC(=O)C(C)(C)CCC(O)(C(=O)OC2(C(C)C)CCC3(C)OC3C2)C(C)C)(C(C)C)CC1 (configuration not stated)	1.39 µM
Cc1cc(OCc2nn(CN3CCN(C)CC3)c(=S)n2/N=C/c2ccc(-c3ccc(Cl)cc3Cl)o2)ccc1Cl	> 100 µM
CCCCCCCCCCCCCCCCCCNc1ccn(C2OC(CO)C(O)C2O)c(=O)n1 (configuration not stated)	> 100 µM
c1ccc(-c2ccc(-c3cc4ccccc4[nH]3)cc2)cc1	> 100 µM
COc1cc2c(cc1OC)CC(=O)c1cc(OC)c(OC)cc1/C=C\2	> 12.5 µM
O=C(O)CCC(NC(=O)c1ccc(Nc2cnc3ccc(C(F)(F)F)cc3n2)cc1)C(=O)O (configuration not stated)	> 100 µM
NC(=NC1CCCCCCC1)c1ccc(N2CCN(c3ccc(C(N)=NC4CCCCCCC4)cc3)CC2)cc1	> 100 µM
CCCc1c(O)c(=O)c2c(OC)cc(OC)c3c4c(OC)cc(OC)c5c(=O)c(O)c(CCC)c(c1c23)c54	2.31 µM
O=C1/C(=C/c2ccc3c(c2)OCO3)CCC1CN1CCOCC1 (configuration not stated)	33.4 µM
C=CCN(N=O)C(=O)N(CCCC(NC(C)=O)C(=O)NCc1ccccc1)Cc1ccccc1 (configuration not stated)	> 100 µM
N#Cc1cccc(C(=O)Nc2cccc(NC(=O)c3cccc(C#N)c3)c2)c1	> 100 µM
CCC(CC)n1cc(C(=O)NC(=O)NCCCCCOC(=O)CCCCCCCCCCC(=O)OCCCCCNC(=O)NC(=O)c2cn(C(CC)CC)c(=O)[nH]c2=O)c(=O)[nH]c1=O	> 100 µM
Cc1ccc(S(=O)(=O)NNC(=O)c2sc(-c3nc(C)c(C(=O)NNS(=O)(=O)c4ccc(C)cc4)s3)nc2C)cc1	> 100 µM
NC(=O)c1oc([N+](=O)[O-])c(-c2ccccc2)c1-c1ccccc1	> 100 µM
COc1cc(Cl)cc(N(O)C(C)=O)c1OCc1ccccc1	> 100 µM

---

# Tested on: HCC-2998 colon
# Assay Details: NCI tumour cell line growth inhibition, 48 h; in the data active = GI50 below about 0.43 µM; inactive = the rest
Labels: active, inactive

Compound	Qualitative Label
COC(=O)c1cc(-c2cc(OC)c(OC)c(OC)c2)[nH]c1N/N=C/c1c(Cl)cccc1Cl	inactive
O=C1CC(c2ccc3c(c2)OCO3)Nc2cc3c(cc21)OCO3 (centres undefined)	inactive
C/C(=C\c1ccn(-c2ccc(N)c(F)c2)n1)[C@@H]1C[C@@H]2O[C@]2(C)CCC[C@H](C)[C@H](O)[C@@H](C)C(=O)C(C)(C)[C@@H](O)CC(=O)O1	active
Cn1ccc2c(c1=O)C(=O)c1nccc3c1c-2nc1ccccc13	inactive
COc1ccc(-c2nnc(SCC(=O)Nc3ccc(/C(C)=N\O)cc3)n2-c2ccccc2)cc1OC	inactive
O=C1/C(=C/c2ccc([N+](=O)[O-])o2)Oc2ccc(Br)cc21	inactive
C=CC1=C[C@@H]2[C@@H]3O[C@]4(CC[C@H](O4)[C@@H](C)C[C@@H](O)C3=O)C[C@H](O)C3=NCC[C@@]32CC1	active
CCCCCCC#Cc1ccccc1C#CCO	inactive
O=C1c2ccc3c4c5ccc(c24)C(=O)N1CCCOCCCCOCCCNCc1ccc(cc1)CNCCCOCCCCOCCCN(C3=O)C5=O	inactive

---

# Test system: HL-60(TB) leukemia
# Assay Details: NCI tumour cell line growth inhibition, 48 h
Experimental Endpoint: TGI

Compound	Result
O=C1NCCCC12CCCNC2=O	> 100 µM
O=c1c2cc(Br)ccc2nc(-c2ccccc2Cl)n1NCC1(O)OCC(O)C(O)C1O (centres undefined)	> 100 µM
NC1=NNC2(C(=O)N1)c1ccccc1-c1ccccc12	> 10 µM
COc1ccc(N=Nc2ccc3oc(=O)c(C(=O)Nc4ccccc4)cc3c2)cc1	> 10 µM

---

# Tested on: UO-31 renal
# Assay Details: NCI tumour cell line growth inhibition, 48 h; in the data active means GI50 below about 0.43 µM; inactive means the rest
Classes used: 1 (yes) (active), 0 (no) (inactive)

Cn1c(=O)c(Oc2ccc(F)cc2F)cc2cnc(NC(CO)CO)nc21 0 (no)
NC(=NC1CCCCCCC1)c1ccc(N2CCN(c3ccc(C(N)=NC4CCCCCCC4)cc3)CC2)cc1 0 (no)
Cn1ccnc1C(=O)/C=C/c1ccc(CC(=O)Nc2ccc(S(F)(F)(F)(F)F)cc2)cc1 0 (no)
NC(=O)c1cc([N+](=O)[O-])c(Cl)c([N+](=O)[O-])c1 0 (no)
CC(C)[C@@]12C[C@@H](OC(=O)COC(=O)/C=C/c3ccccc3)[C@@](C)(O1)[C@@H]1CC[C@@H](C)[C@H]1[C@@H]2OC(=O)/C=C/c1ccccc1 1 (yes)
COc1ccn2c(C(C)=O)cc(C(=O)c3ccc4c(c3)Sc3ccccc3N4)c2c1 0 (no)
N=c1c2c(-c3ccccc3)c(-c3ccccc3)n(Cc3ccccc3)c2ncn1CCCO 0 (no)
Cc1nc2cnc3cc(F)c(-c4ccc(Oc5ncccn5)cc4Cl)cc3c2n1[C@H]1CCN(C(=O)CO)C[C@@H]1F 0 (no)
O=C1/C(=C/c2ccc([N+](=O)[O-])o2)Oc2ccc(Br)cc21 0 (no)
COc1cc2c3c(n(CCCNCC(OC)OC)c(=O)c2cc1OC)-c1cc2c(cc1C3=O)OCO2 0 (no)

---

# Test system: HS 578T breast
# Assay Details: NCI tumour cell line growth inhibition, 48 h
Experimental Endpoint: TGI

Molecule	Experimental Endpoint	Result
C(=C\c1nccs1)/c1cccc(/C=C/c2nccs2)n1	TGI	> 50 µM
O=C1CC(c2ccc3c(c2)OCO3)Nc2cc3c(cc21)OCO3 (stereo not given)	TGI	93.6 µM
CCCc1c(O)c(=O)c2c(OC)cc(OC)c3c4c(OC)cc(OC)c5c(=O)c(O)c(CCC)c(c1c23)c54	TGI	72.2 µM
O=C1/C(=C/c2ccc3c(c2)OCO3)CCC1CN1CCOCC1 (stereo not given)	TGI	14.8 µM
C=C(C(=O)O)C1CCC(CC/C=C(\C)CC/C=C(\C)CCC=C(C)C)CO1 (stereo not given)	TGI	> 100 µM
Cc1nn(C(=O)c2ccncc2)c2c1C(c1ccc(Cl)cc1)SC(N)=N2 (stereo not given)	TGI	> 10 µM
C=C[C@H]1CC[C@H]2[C@@H]3CC=C4C[C@@H](OC5OCC(O)C(O)C5O)CC[C@]4(C)[C@H]3CC[C@]12C (stereo not given in full)	TGI	48.3 µM
COc1cc2c(cc1OC)CC(=O)c1cc(OC)c(OC)cc1/C=C\2	TGI	> 12.5 µM
Nc1ccc(C2NC(=O)Cc3c2ccc2ccccc32)cc1 (stereo not given)	TGI	> 100 µM
CCCCCCCCCCC(O)[C@H]1CCC(C2CC[C@H]([C@H](O)CCCCCCCCCCC(O)CC3=CC(C)OC3=O)O2)O1 (stereo not given in full)	TGI	3.5 µM
CCCCCCCCCCCCCCCCCCNc1ccn(C2OC(CO)C(O)C2O)c(=O)n1 (stereo not given)	TGI	> 100 µM
OCC1OC(Oc2cc(O)cc(/C=C/c3ccc(O)cc3)c2)C(O)C(O)C1O (stereo not given)	TGI	> 100 µM
O=C1C=C[C@@]23C[C@@H](Nc4c(O)c5c6c(c42)=NCCC=6C=N5)SC3=C1	TGI	19.8 µM
CC(=O)O[C@@H]1[C@H]2[C@@H](OC(=O)c3ccccc3)[C@@H](C)C[C@]2(O)[C@H](OC(C)=O)[C@@]2(C)[C@@H]3CC(C)(C)C(=O)[C@]3(OC(C)=O)C[C@@]12C	TGI	> 25 µM
O=C1Nc2ccccc2C1Cc1ccc([N+](=O)[O-])cc1 (stereo not given)	TGI	> 100 µM
COc1ccc(N=Nc2ccc3oc(=O)c(C(=O)Nc4ccccc4)cc3c2)cc1	TGI	> 10 µM
O=C(O)CSCC(=O)O	TGI	> 100 µM
C[C@]12CC[C@@H]3c4ccc(O)cc4CC[C@H]3[C@@H]1CC[C@@H]2NS(=O)(=O)c1cccc(C(F)(F)F)c1	TGI	15.6 µM
C=C1CCC2CC1[C@@H](C(=O)c1c[nH]c3ccccc13)NC2(C)C (stereo not given in full)	TGI	> 37.5 µM
N#Cc1c(N)nc(N2CCOCC2)c(C#N)c1-c1ccc(Cl)cc1	TGI	> 100 µM
